# System: ATP;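 also: ATP exposure 15 min at 22 °C before imaging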
# protocol text: switch fluorescence ratio, 500 uM ATP over buffer (Cy3 cluster intensity, sum of 5 cycles each) (fold (ratio)); higher = stronger signal-on switching upon ATP binding; sequences stand for … in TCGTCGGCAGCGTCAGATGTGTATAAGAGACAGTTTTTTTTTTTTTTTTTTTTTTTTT…TC
# run parameters: aptamer strand: ATP DNA aptamer (quencher-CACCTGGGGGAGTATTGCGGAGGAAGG + anchor), 100 nM annealed; ATP concentration: 500 uM
readout label: switch fluorescence ratio

{"columns": ["primary sequence", "value reported"],
 "data": [
  ["CGTTTATTGA", 1],
  ["CTATAATGAG", 0.996],
  ["TCATTGATTG", 0.999],
  ["GGATCGGATT", 0.979],
  ["CAAAGGGAAA", 1.02],
  ["GGACTCTGCG", 1],
  ["ATGAGGCGAA", 1.01],
  ["AGATAGGGGA", 1.01],
  ["CACACGTGGT", 0.991],
  ["AGGCTAAAG", 0.974],
  ["AGTAAAAAAT", 0.989]
]}

Each recorded value in this set is attributed to the supplement of paper PMC10126150.
